Recorded melting point, one value per entry.

Form field melting point, entry `CCCCc1cc2cc(NC(C)=O)ccc2o1` : 71 to 73 °C

Form field melting point, entry `Oc1cncc2ccsc12` : 180 °C

Form field melting point, entry COc1cccc2c1C(C)N1CC(=O)NC1=N2 (configuration not stated) : 250 °C

Form field melting point, entry `Cc1c(SCCCl)ccnc1CSc1nc2ccccc2[nH]1` : 178 to 180 °C

Further cases:
Form field melting point, entry `CCCCCCCCCCCCCc1c[nH]c(C(=O)OC)c1` : 80 to 82 °C

Form field melting point, entry O=C(OCc1ccccc1)C1NN=C(c2ccc(C(F)(F)F)cc2)S1 (configuration not stated) : 99 to 100 °C
